# Test system: HeLa-p4 cells
# Experiment: Cell viability assay (MTS) on HeLa-p4 cells
# Format: cell-based
# Setup Conditions: 50 μM; cell viability
Let's look at some molecules and their measured Hela-p4 MTS 50 μM.
Keep the answer to the number alone.

N[C@@H]1C[C@H](N)CN(C2Cc3ccccc3C2)C1 [ECO01-041-C] | 98
COc1cc(CN2C[C@H](N)C[C@H](N)C2)cc(OC)c1 [ECO02-064-C] | 115
COc1cc(N2C[C@H](N)C[C@H](N)C2)cc(OC)c1OC [AB-116] | 96
COc1cccc(CCN2C[C@@H](N)C[C@@H](NC(=O)OC(C)(C)C)C2)c1 [ECO02-078-C] | 105
COc1ccc(CCN2C[C@H](N3C[C@H](N)C[C@H](N)C3)C[C@H](N3C[C@H](N)C[C@H](N)C3)C2)cc1OC [AB-103] | 83
COc1ccc(CN2C[C@H](N)C[C@H](N)C2)cc1OC [PDA25] | 97

Q: # get_value(readout='Hela-p4 MTS 50 μM', item= N[C@@H]1C[C@H](N)CN(c2ccc3[nH]ccc3c2)C1 [AB-86] )
Result: 81

Q: Thanks! And CS(=O)(=O)c1ccc(CCN2C[C@H](N)C[C@H](N)C2)cc1 [ECO01-039-C] ?
Result: 95

Q: Thanks! And Cc1cccc(CCN2C[C@H](N)C[C@H](N)C2)c1 [ECO01-030-C] ?
Result: 84

----------
# Tested on: wild type NL4-3 virus (HIV-1) in HeLa-p4 cells
# Experiment: HeLa-p4 single-cycle HIV-1 infectivity, beta-galactosidase CPRG test
# Type: cell-based
# Setup Conditions: Human immunodeficiency virus 1, NL43, HeLaP4; 100 μM; 48 hours after infection; control = NL4-3 virus alone; read-out: Hela-p4 CPRG 100 μM
Structures can show the parent of a compound that is named as a salt.
Let's look at some molecules and their measured activity at 100 µM.

N[C@@H]1C[C@H](N)CN(Cc2cccc3cnccc23)C1 [ECO02-068-C, trihydrochloride] | 137%
COc1cccc(CCN2C[C@H](NC(C)=O)C[C@H](NC(C)=O)C2)c1 | 167%
CC(C)(C)OC(=O)N[C@@H]1C[C@H](NC(=O)OC(C)(C)C)CN(Cc2ccc(N3CCCC3)cc2)C1 | 177%

Let us move to another entry and its activity at 100 µM.
Q: # get_value(readout='activity at 100 µM', item= `N[C@@H]1C[C@H](N)CN(S(=O)(=O)c2ccccc2)C1` )
Result: 170%

----------
Let's look at some compounds and their measured Hela-p4 MTS 100 μM.
# Tested on: HeLa-p4 cells
# Experiment: Cell viability assay (MTS) on HeLa-p4 cells
# Format: cell-based
# Setup Conditions: 100 μM; cell viability

Solved cases (4 shown):
COc1cccc(CCN2C[C@H](NS(C)(=O)=O)C[C@H](NS(C)(=O)=O)C2)c1 [ECO02-073-B2] | 94
N[C@@H]1CNC[C@H](N)C1 [ECO01-025-C2, piperidine-3,5-diamine] | 79
N[C@@H]1C[C@H](N)CN(CCc2ccc3c(c2)OCO3)C1 [ECO01-033-C] | 94
COc1cc(CN2C[C@H](N)C[C@H](N)C2)cc(OC)c1 [ECO02-064-C] | 107

Q: # get_value(readout='Hela-p4 MTS 100 μM', item= N[C@@H]1C[C@H](N)CN(c2ccc3[nH]ccc3c2)C1 [AB-86] )
Result: 74
